Assay: Components of the Cytosolic LPS Sensing Pathway: Gene Identification via Genome-wide siRNA Screen
Settings: RAW264.7 macrophages, IL-1a HTRF, actives lie on both sides, screened at 100 nM (by protocol), cells primed 5 h with Pam3CSK4 first
The whole screen tested about 53,000 sequences, of which about 3,700 (7%) were called active. The full list was thinned out, with actives kept by preference.
Lab note - cut at -0.5 for z-score: satisfied if strictly below, not satisfied if not.

- seq: "CCAUUGUGAUCAAGAUAAATT against Cggbp1"
  label-value: "not satisfied"

Identify whether the sequence CGGCAGAUUGCUGCUUUGATT against Vmn2r122 records z-score below -0.5.
not satisfied

Identify whether the sequence GGCUUCAAAACAUUUUCAGTT against Kansl1l records z-score below -0.5.
not satisfied

Identify whether the sequence GGAAUACGACAGAACUCCATT against Extl1 records z-score below -0.5.
not satisfied

Identify whether the sequence GGAUACUCCUCUGAGUAGUTT against Mtmr11 records z-score below -0.5.
not satisfied

Identify whether the sequence GGAAUGGUAUCAGACUUCUTT against Tarm1 records z-score below -0.5.
not satisfied

Identify whether the sequence GGUUCAUCCAACUUUCAAGTT against Stac3 records z-score below -0.5.
not satisfied
